Kindly state TGI for each of the entries shown.
Test system: SK-OV-3 ovarian
experiment-description: NCI tumour cell line growth inhibition, 48 h
Where a SMILES comes first, the peptide text is derived from it. [ ]: non-standard residue; d: D form. pGlu = O=C1CC[CH](C(=O)O)N1

Reported TGI of `O=[N+]([O-])c1ccc(C[P+](c2ccccc2)(c2ccccc2)c2ccccc2)cc1` : > 100 µM

TGI reported for this compound `CCOC(=O)c1nnsc1NC(=O)Nc1ccc(Cc2ccc(NC(=O)Nc3snnc3C(=O)OCC)cc2)cc1` : 54.8 µM

Item: CC1=C(c2ccccc2)C(c2ccccc2)=C(c2ccccc2)C2(c3ccccc3)C(=O)C(C)CN12 (stereo not drawn) | TGI: > 100 µM

Sample O=NN1C(c2ccccc2)CC(=NO)CC1c1ccccc1 (stereo not drawn) ; TGI observed: > 100 µM

The reported TGI of the compound `CCOC(=O)c1nn2c(nc1=O)sc1ccc3ccccc3c12` was > 100 µM

Measured TGI of `CC(=O)OC/C=C/[C@H](O[Si](C)(C)C(C)(C)C)[C@@H](O)/C=C/COC(C)=O` : > 100 µM

The recorded TGI for entry `O=C(NNC(=S)Nc1ccccc1)c1cc(-c2ccccc2)nc2ccccc12` equals 43.2 µM

TGI recorded for this compound, `O=C1Nc2ccccc2C1=Nc1cccc2ncccc12` , is 99.7 µM

# TGI (compound: `c1coc(CNc2ncnc3[nH]ncc23)c1` ) is > 100 µM

// COc1ccc(C23C(=O)c4ccccc4N2O[C@H]2C(=O)N(c4ccccc4)C(=O)[C@H]23)cc1 (stereo partly drawn) : TGI value = > 100 µM

TGI for O=C1NCC(CSc2nc3cc(C4CCCc5c4[nH]c4ccccc54)ccc3o2)N1 (stereo not drawn) is > 100 µM

Looking up `N#CC1(C#N)C2(c3ccccc3)OC(c3ccccc3)(c3cc4ccccc4cc32)C1(C#N)C#N` , I found its TGI recorded as 37.4 µM

Recorded TGI (compound CC1CCC2(O)C3(C)CC4(O)OC2(C1O)C1(O)C3(O)C(OC(=O)c2ccc[nH]2)C(O)(C(C)C)C41C (stereo not drawn) ): > 100 µM

Record CCNC(=O)C1CCCN1C(=O)C(CCCN=C(N)N)NC(=O)C(CC(C)C)NC(=O)C(CC(C)C)NC(=O)C(Cc1ccc(O)cc1)NC(=O)C(CO)NC(=O)C(Cc1c[nH]c2ccccc12)NC(=O)C(Cc1cnc[nH]1)NC(=O)C1CCC(=O)N1 (stereo not drawn) ([pGlu]HWSYLLRP-NHEt; configuration not given here) . Reported TGI: > 100 µM

The measured TGI associated with Fc1ccc(C2CC(c3cccc(Nc4ccncc4)c3)=NN2c2ccc(Cl)cc2)cc1 (stereo not drawn) reads 4.53 µM

Quick note, TGI for `O=C(Oc1cccc(F)c1OC(=O)c1cccc(O)c1)c1cccc(O)c1` landed at > 100 µM

// sample `Cc1ccc(C2=Nn3c(nc4sc(C)c(C)c4c3=O)SC2)cc1` , its TGI was > 100 µM

TGI for `Clc1nc(Cl)c2ncn(CC3(Cn4cnc5c(Cl)nc(Cl)nc54)COC3)c2n1` is 2.98 µM
